FYI, the data here is from patent US11083199B2.

- Test system: Musca domestica
- assay: Musca domestica test
- Type: in vivo
- test conditions: application rate 100 ppm; adult houseflies, kill after 2 days
The entries below are paired with their reported efficacy.
Reply numerically in %, unit not repeated.

Would you please look over these solved cases?
| chemical string | assay target | property name | numeric readout |
| --- | --- | --- | --- |
| CCn1c(-c2ccccc2)nc(-c2nc3cc(C(F)(F)F)ncc3n2C)c1S(=O)(=O)CC | Musca domestica | efficacy | 80 |
| CCS(=O)(=O)c1c(-c2nc3cc(C(F)(F)F)ncc3n2C)nc(-c2cccc(Cl)n2)n1C | Musca domestica | efficacy | 80 |
| CCS(=O)(=O)c1c(-c2nc3cc(C(F)(F)F)ncc3n2C)nc(-c2ccc(Cl)cc2)n1C | Musca domestica | efficacy | 100 |
| CCS(=O)(=O)c1c(-c2nc3cc(C(F)(F)F)ncc3n2C)nc(-c2cc(Cl)cs2)n1C | Musca domestica | efficacy | 90 |
| CCS(=O)(=O)c1c(-c2nc3cc(C(F)(F)F)ncc3n2C)nc(-c2ccc(F)nc2)n1C | Musca domestica | efficacy | 100 |
| CCS(=O)(=O)c1c(-c2nc3cc(C(F)(F)F)ncc3n2C)nc(-c2cncc(F)c2)n1C | Musca domestica | efficacy | 80 |

Moving on to the next compound.
The recorded efficacy for `CCS(=O)(=O)c1c(-c2nc3cc(C(F)(F)F)ncc3n2C)nc(-c2ccn[nH]2)n1C` is 80

====

- System: Lucilia cuprina
- assay: Lucilia cuprina test
- Format: in vivo
- test conditions: 48 h, application rate 100 ppm, L1 larvae, kill after 2 days, read-out: efficacy
Catalogue of pest or weed control at 100 ppm readings, one per entry.
Answer in %, number only, no unit symbol.

Solved cases (7 shown):
| chemical string | u | pest or weed control at 100 ppm |
| --- | --- | --- |
| CCS(=O)(=O)c1c(-c2nc3cc(C(F)(F)F)ncc3n2C)nc(-c2cncnc2)n1C | % | 100 |
| CCS(=O)(=O)c1c(-n2cc3ccc(C(F)(F)F)cc3n2)nc(-c2ccc(Cl)cc2)n1C | % | 100 |
| CCS(=O)(=O)c1c(-c2nc3cc(C(F)(F)F)ncc3n2C)ncn1C | % | 95 |
| C=C(C)c1nc(-c2nc3cc(C(F)(F)F)ncc3n2C)c(S(=O)(=O)CC)n1C | % | 100 |
| CCS(=O)(=O)c1c(-c2nc3cc(C(F)(F)F)ncc3n2C)nc(-c2ccc(Cl)cn2)n1C | % | 100 |
| CCn1c(Cl)nc(-c2nc3cc(C(F)(F)F)ncc3n2C)c1S(=O)(=O)CC | % | 100 |
| CCS(=O)(=O)c1c(-c2nc3cc(C(F)(F)F)ncc3n2C)nc(-c2ccccc2)n1C(C)C | % | 100 |

Attention now shifts to the item below.
`CCS(=O)(=O)c1c(-c2nc3cc(C(F)(F)F)ncc3n2C)nc(-c2cncc(F)c2)n1C` has a reported pest or weed control at 100 ppm of 100

====

- Tested on: Phaedon cochleariae
- assay: Phaedon cochleariae spray test
- Format: in vivo
- test conditions: 168 h, application rate 100 g/ha, larvae, after 7 days, read-out: efficacy
Each entry below carries its recorded pest or weed control at 100 g/ha.
API: value field is a number in %; no unit string.

Example cases with answers are listed next.
| molecule | property name | u | numeric readout |
| --- | --- | --- | --- |
| CCS(=O)(=O)c1c(-c2nc3cc(C(F)(F)F)ncc3n2C)nc(-c2cnn(C3CC3)c2)n1C [Example I-055] | pest or weed control at 100 g/ha | % | 100 |
| CCS(=O)(=O)c1c(-c2nc3cc(C(F)(F)F)ncc3n2C)nc(-c2cccc(C3(C#N)CC3)c2)n1C [Example I-087] | pest or weed control at 100 g/ha | % | 100 |
| CCS(=O)(=O)c1c(-c2nc3cc(C(F)(F)F)ncc3n2C)nc(/C=C/C2CC2)n1C [Example I-007] | pest or weed control at 100 g/ha | % | 100 |

Field pest or weed control at 100 g/ha (entry CC(C)S(=O)(=O)c1c(-c2nc3cc(C(F)(F)F)ncc3n2C)nc(-c2ccn(C)n2)n1C [Example I-061] ) reads 100

Briefly, pest or weed control at 100 g/ha measured for CCS(=O)(=O)c1c(-c2nc3cc(C(F)(F)F)ncc3n2C)nc(-c2cc(C(F)(F)F)nn2C)n1C [Example I-068] : 100

For reference, reported pest or weed control at 100 g/ha for CCS(=O)(=O)c1c(-c2nc3cc(C(F)(F)F)ncc3n2C)nc(-c2ccc(Cl)s2)n1C [Example I-057] stands at 100

Reported pest or weed control at 100 g/ha for CCSc1c(-c2nc3cc(C(F)(F)F)ncc3n2C)nc(C(=O)OC)n1C [Example I-035] was 83

// CCS(=O)(=O)c1c(-c2nc3cc(C(F)(F)F)ncc3n2C)nc(-c2ccc(C3(C#N)CC3)cc2)n1C [Example I-069] : pest or weed control at 100 g/ha value = 100

Form field pest or weed control at 100 g/ha, entry CCNC(=O)c1nc(-c2nc3cc(C(F)(F)F)ncc3n2C)c(S(=O)(=O)CC)n1C [Example I-041] : 100

pest or weed control at 100 g/ha reading for CCS(=O)(=O)c1c(-c2nc3cc(C(F)(F)F)ncc3n2C)nc(-c2cc(Cl)c(C(F)(F)F)cc2C)n1C [Example I-081] : 100

Record CCS(=O)(=O)c1c(-c2nc3cc(C(F)(F)F)ncc3n2C)nc(-c2ccc(F)nc2)n1C [Example I-019] . Reported pest or weed control at 100 g/ha: 100

For reference, reported pest or weed control at 100 g/ha for CCS(=O)(=O)c1c(-c2nc3cc(C(F)(F)F)ncc3n2C)nc(-c2ccc(C3(C#N)CC3)cc2C)n1C [Example I-076] stands at 100

Looking up CCS(=O)(=O)c1c(-c2nc3cc(C(F)(F)F)ncc3n2C)nc(-c2cccc(Cl)n2)n1C [Example I-014] , I see its pest or weed control at 100 g/ha listed as 100

Recorded result, CCS(=O)(=O)c1c(-n2cc3cnc(C(F)(F)F)cc3n2)nc(-c2ccc(C(F)(F)F)cc2)n1C [Example I-097] , pest or weed control at 100 g/ha: 100
